# Assayed system: Cytochrome P450 2C9 (Homo sapiens) (UniProt P11712)
# Sequence (P11712 whole entry, looked up): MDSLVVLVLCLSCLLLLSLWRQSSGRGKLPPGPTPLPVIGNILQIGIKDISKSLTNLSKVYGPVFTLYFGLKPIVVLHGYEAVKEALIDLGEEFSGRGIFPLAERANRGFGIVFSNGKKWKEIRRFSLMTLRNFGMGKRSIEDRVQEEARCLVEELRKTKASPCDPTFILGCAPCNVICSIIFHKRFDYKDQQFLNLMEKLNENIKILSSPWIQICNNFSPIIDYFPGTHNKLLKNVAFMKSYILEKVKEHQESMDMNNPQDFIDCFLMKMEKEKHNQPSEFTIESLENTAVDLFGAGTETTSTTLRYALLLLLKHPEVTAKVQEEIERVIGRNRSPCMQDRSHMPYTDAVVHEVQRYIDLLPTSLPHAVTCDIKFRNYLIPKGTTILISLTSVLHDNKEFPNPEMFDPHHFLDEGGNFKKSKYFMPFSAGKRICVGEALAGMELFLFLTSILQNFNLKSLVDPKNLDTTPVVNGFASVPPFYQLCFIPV
# Experiment summary: Cytochrome P450 family 2 subfamily C member 9 (CYP2C9) small molecule antagonists: luciferase biochemical (cell-free) qHTS assay (AID 1645842); note: nearly all actives have a fitted effect of over 55% in size
# Setup conditions: P450-Glo CYP2C9 enzyme assay, luciferin luminescence; series mostly up to 57.4 µM
Results filed as inconclusive are left out. Active and inactive are the calls of the source. Calls come from the whole dose curve; as a rule, active = well fitted inhibition curve with a large enough effect in the repeat runs; inconclusive = weak or mixed curves; inactive = no such curve, though single readings can be large or run the other way.
API: response.call in active, inactive

Record excerpt, results attached:
INSERT INTO results (substance_smiles, assigned_class) VALUES
  ('O=C(Nc1ccc(S(=O)(=O)C(F)(F)F)cc1)C1=CCN(c2ncccc2C(F)(F)F)CC1', 'active'),
  ('CCS(=O)(=O)N1CCN(c2ccc(Nc3ncc(C(N)=O)c(NC4CC4)n3)cc2)CC1', 'active'),
  ('COc1cc(Nc2nc3ccccc3nc2NS(=O)(=O)c2ccc(NC(=O)c3ccc(OC)c(C)c3)cc2)cc(OC)c1', 'active'),
  ('Cc1cccc(/C=N/Nc2cc(N3CCOCC3)n3nc(-c4ccncc4)cc3n2)c1', 'active'),
  ('C[C@@H]1CN(Cc2ccccc2)C[C@H]1c1nc2c(cnn2C2CCOCC2)c(=O)[nH]1', 'inactive');

I'd appreciate the recorded outcome for Cc1cc(OCc2nnc(SC3CCCC3)n2-c2cccnc2)ccc1-c1ccc(S(C)(=O)=O)cc1 from this test.
active

I'd appreciate the recorded outcome for Cn1cc(S(=O)(=O)c2ccc(Cl)cc2)c2cccc(N3CCNCC3)c21 from this test.
active

I'd appreciate the recorded outcome for COc1ccc([C@H]2CNC(=O)C2)cc1OC1CCCC1 from this test.
inactive

I'd appreciate the recorded outcome for CN[C@H](C(=O)N[C@H](C(=O)N(C)[C@H](/C=C(\C)C(=O)O)C(C)C)C(C)(C)C)C(C)(C)c1ccccc1 from this test.
inactive

---

Please provide measured activity change, negative = cytotoxicity for the entries that follow.
# System: Tov112D
# Experiment summary: Primary qHTS to identify gynecologic anti-cancer compounds using libraries of approved drugs and bioactive compounds (AID 1345084); note: % is set by controls: 0 for no effect and ±100 for the full control effect; nearly all actives have a fitted effect of over 55% in size
# Setup conditions: Gynecologic cancer cell panel viability, ATPlite luminescence, 48 h; series mostly up to 57.5 µM
Inconclusive results are not listed. Activity calls are given as the source filed them. Calls come from the whole dose curve; as a rule, active = well fitted cell-killing curve with a large enough effect; inconclusive = small, poorly fitted or top-dose-only effect, or effect the other way; inactive = flat fitted curve, though single readings scatter.

INSERT INTO results (molecule, assayed_system, obs_value) VALUES
  ('CC(C)C[C@H](CC(=O)NO)C(=O)N[C@H](C(=O)N[C@@H](C)C(=O)NCCN)C(C)(C)C', 'Tov112D', '-2.79% [at 11.6 µM] (inactive)');

Pending molecule:
Lab note: need activity change, negative = cytotoxicity for C[C@@H]1O[C@@H](O[C@@H]2[C@@H](O)[C@H](O[C@H]3[C@H](O[C@H]4CC[C@@]5(C)C(CC[C@]6(C)C5CC=C5[C@@H]7CC(C)(C)CC[C@]7(C(=O)O[C@@H]7O[C@H](CO)[C@@H](O)[C@H](O)[C@H]7O[C@@H]7O[C@@H](C)[C@H](O[C@@H]8O[C@@H](C)[C@H](O)[C@@H](O)[C@H]8O)[C@@H](O)[C@H]7O)CC[C@]56C)[C@@]4(C)CO)O[C@H](C(=O)O)[C@@H](O)[C@@H]3O)O[C@H](CO)[C@H]2O)[C@H](O)[C@H](O)[C@H]1O (some centres not stated) on Tov112D, anyone have it?
10.3% [at 6.55 µM] (inactive)

// provenance: PubChem BioAssay (NCATS)
